Test: PK study in plasma and CSF after single IV, SC or IN dose
Format: in vivo, rat
Details: rat, in vivo, 5.5 mg/kg, Cmax, IN 5.5 mg/kg, CSF
Where no end group is shown, it is not given here.
PROPERTY LABEL: Cmax (µg/mL)
The reply should contain only the number, in µg/mL.

Given DEEEDEEL [P8, DEEEDEEL] , state its recorded Cmax.
0.0124

---

Assay: PK study in plasma and CSF after single IV, SC or IN dose
Assay type: in vivo, rat
Conditions: rat, in vivo, sc, 11 mg/kg, Tmax, SC 11 mg/kg, CSF
Where no end group is shown, it is not given here.
PROPERTY LABEL: Tmax (min)
# output: bare number, implied unit min

I would be grateful if you could share the reported Tmax for DEEEDEEL [P8, DEEEDEEL] .
43

// data source = paper PMC6218153
